Measured values drawn from patent US20220073643A1 for this set.

System Name: Claudin18.2-His protein (human)
Protocol Description: indirect ELISA on coated Claudin18.2-His
Property Measured: EC50 (µg/mL)
Numbers only here, please. The scale is µg/mL.

Input 232D7C8 (antibody, V domains shown) VH: QAYLQQSGAELVRSGASVKMSCKASGYTFTSHNMHWVKQTPGQGLEWIGYIYPGNGGTNYNQKFKGKATLTADTSSSTAYMQISSLTSEDSAVYFCARDYFGNSFAYWGQGTLVTVSA VL: DILMTQSPSSLTATAGEKVSMSCKSSQSLFNSGNQRNYLTWYQQRPGQPPKLLIYWASTRESGVPDRFTGSGSGTDFTLTISSVQAEDLAVYYCQNDYRYPFTFGAGTKLELK . Output EC50: 0.0305

Input 419A10D4 (antibody, V domains shown) VH: DVQLVESGGGLVQPGGSRKLSCAASGFTFSGFGMHWIRQTPEKGLEWVAYISSGSRPIYYADTVKGRFTISRDNPKNTLFLQMTSLRSEDTAMYFCARFYYGNSFDHWGQGTLVTVSA VL: DIVMTQSPSFLTVTAGEKVTMSCKSSQSLLNSGNQRNYLTWYQQKPGQPPKLLIYWASTRESGVPDRFTGSGSGTDFTLTVSSVQAEDLALYYCQNAYSFPLTFGAGTKLELK . Output EC50: 0.00653
